Experiment: Probe fluorescence ratio response to stearic acid relative to ADIFAB2
Type: binding
Conditions: response relative to ADIFAB2
assay.endpoint: DR/DR SA

>  <molecule>
38Y 117A 72A (protein, listed as Rattus norvegicus, PEPTIDE (1)...(131) wild-type rat intestinal fatty acid binding protein) AFDGTWKVDRNENYEKFMEKMGINVVKRKLGAHDNLKYTITQEGNKFTVKESSNFRNIDVVFELGVDFAYSAADGTELTGTWTMEGNKLVGKFKRVDNGKELIAVREISGNELIQTATYEGVEAKRIFKKE

>  <assay.endpoint>
DR/DR SA

>  <quantitative.result>
1.201

$$$$
>  <molecule>
18V 31Y 73V 72A (protein, listed as Rattus norvegicus, PEPTIDE (1)...(131) wild-type rat intestinal fatty acid binding protein) AFDGTWKVDRNENYEKFVEKMGINVVKRKLYAHDNLKLTITQEGNKFTVKESSNFRNIDVVFELGVDFAYSAVDGTELTGTWTMEGNKLVGKFKRVDNGKELIAVREISGNELIQTYTYEGVEAKRIFKKE

>  <assay.endpoint>
DR/DR SA

>  <quantitative.result>
1.330

$$$$
>  <molecule>
14L 18L 31S 73W 117V 72A (protein, listed as Rattus norvegicus, PEPTIDE (1)...(131) wild-type rat intestinal fatty acid binding protein) AFDGTWKVDRNENLEKFLEKMGINVVKRKLSAHDNLKLTITQEGNKFTVKESSNFRNIDVVFELGVDFAYSAWDGTELTGTWTMEGNKLVGKFKRVDNGKELIAVREISGNELIQTVTYEGVEAKRIFKKE

>  <assay.endpoint>
DR/DR SA

>  <quantitative.result>
0.329

$$$$
>  <molecule>
21W 78I 72A (protein, listed as Rattus norvegicus, PEPTIDE (1)...(131) wild-type rat intestinal fatty acid binding protein) AFDGTWKVDRNENYEKFMEKWGINVVKRKLGAHDNLKLTITQEGNKFTVKESSNFRNIDVVFELGVDFAYSAADGTEITGTWTMEGNKLVGKFKRVDNGKELIAVREISGNELIQTYTYEGVEAKRIFKKE

>  <assay.endpoint>
DR/DR SA

>  <quantitative.result>
3.396

$$$$
>  <molecule>
72V 73W 74N (protein, listed as Rattus norvegicus, PEPTIDE (1)...(131) wild-type rat intestinal fatty acid binding protein) AFDGTWKVDRNENYEKFMEKMGINVVKRKLGAHDNLKLTITQEGNKFTVKESSNFRNIDVVFELGVDFAYSVWNGTELTGTWTMEGNKLVGKFKRVDNGKELIAVREISGNELIQTYTYEGVEAKRIFKKE

>  <assay.endpoint>
DR/DR SA

>  <quantitative.result>
0.468

$$$$
>  <molecule>
72T 73I 74A (protein, listed as Rattus norvegicus, PEPTIDE (1)...(131) wild-type rat intestinal fatty acid binding protein) AFDGTWKVDRNENYEKFMEKMGINVVKRKLGAHDNLKLTITQEGNKFTVKESSNFRNIDVVFELGVDFAYSTIAGTELTGTWTMEGNKLVGKFKRVDNGKELIAVREISGNELIQTYTYEGVEAKRIFKKE

>  <assay.endpoint>
DR/DR SA

>  <quantitative.result>
1.359

$$$$
>  <molecule>
18I 31Y 73I 72A (protein, listed as Rattus norvegicus, PEPTIDE (1)...(131) wild-type rat intestinal fatty acid binding protein) AFDGTWKVDRNENYEKFIEKMGINVVKRKLYAHDNLKLTITQEGNKFTVKESSNFRNIDVVFELGVDFAYSAIDGTELTGTWTMEGNKLVGKFKRVDNGKELIAVREISGNELIQTYTYEGVEAKRIFKKE

>  <assay.endpoint>
DR/DR SA

>  <quantitative.result>
1.310

$$$$
>  <molecule>
18V 31Y 73I 72A (protein, listed as Rattus norvegicus, PEPTIDE (1)...(131) wild-type rat intestinal fatty acid binding protein) AFDGTWKVDRNENYEKFVEKMGINVVKRKLYAHDNLKLTITQEGNKFTVKESSNFRNIDVVFELGVDFAYSAIDGTELTGTWTMEGNKLVGKFKRVDNGKELIAVREISGNELIQTYTYEGVEAKRIFKKE

>  <assay.endpoint>
DR/DR SA

>  <quantitative.result>
1.139

$$$$
>  <molecule>
78F 102I 72A (protein, listed as Rattus norvegicus, PEPTIDE (1)...(131) wild-type rat intestinal fatty acid binding protein) AFDGTWKVDRNENYEKFMEKMGINVVKRKLGAHDNLKLTITQEGNKFTVKESSNFRNIDVVFELGVDFAYSAADGTEFTGTWTMEGNKLVGKFKRVDNGKEIIAVREISGNELIQTYTYEGVEAKRIFKKE

>  <assay.endpoint>
DR/DR SA

>  <quantitative.result>
1.877

$$$$
>  <molecule>
72S 73W 74G (protein, listed as Rattus norvegicus, PEPTIDE (1)...(131) wild-type rat intestinal fatty acid binding protein) AFDGTWKVDRNENYEKFMEKMGINVVKRKLGAHDNLKLTITQEGNKFTVKESSNFRNIDVVFELGVDFAYSSWGGTELTGTWTMEGNKLVGKFKRVDNGKELIAVREISGNELIQTYTYEGVEAKRIFKKE

>  <assay.endpoint>
DR/DR SA

>  <quantitative.result>
0.411

$$$$
>  <molecule>
72S 73V 74V (protein, listed as Rattus norvegicus, PEPTIDE (1)...(131) wild-type rat intestinal fatty acid binding protein) AFDGTWKVDRNENYEKFMEKMGINVVKRKLGAHDNLKLTITQEGNKFTVKESSNFRNIDVVFELGVDFAYSSVVGTELTGTWTMEGNKLVGKFKRVDNGKELIAVREISGNELIQTYTYEGVEAKRIFKKE

>  <assay.endpoint>
DR/DR SA

>  <quantitative.result>
1.058

$$$$
